# Target system: Hsa NCOA2 CID (TIF2) (human)
# Assay text: ITC; iTC200, 25°C, 20 mM sodium phosphate, pH 7.4, 150 mM NaCl; both partners dialysed against the same buffer
Observed property: Kd (nM)
Give a bare numeral; the unit nM is implied.

Completed entries (count: 3):
INSERT INTO results (substance, obs_value) VALUES
  ('Hsa CREBBP NCBD A2106Q (from UniProt Q92793 2062-2109) (domain or fragment)', 100),
  ('Hsa CREBBP NCBD (from UniProt Q92793 2062-2109) (domain or fragment)', 130),
  ('Hsa CREBBP NCBD Y2108Q (from UniProt Q92793 2062-2109) (domain or fragment)', 210);

Could you now consider this next substance?
Name the recorded Kd of Hsa CREBBP NCBD A2106Q/Y2108Q (from UniProt Q92793 2062-2109) (domain or fragment) , assay system Hsa NCOA2 CID (TIF2) (human).
220

The reported numbers originate from paper PMC5419745.
